Test system: NCI-H1563
ASSAY_NAME: relative viability (nuclei count vs DMSO), 5 days (fraction); higher = more cells survive
SETTINGS: first compound 4 µM
Overview of reported relative viability across a group of compounds:
QUANTITY_KIND: relative viability

| COMPOUND | EXPERIMENTAL_SYSTEM | VALUE_OBSERVED |
| --- | --- | --- |
| Clc1ccc(Nc2nnc(Cc3ccncc3)c3ccccc23)cc1 [Vatalanib] + COc1cccc2cc(-c3nc([C@H]4CC[C@H](C(=O)O)CC4)n4ncnc(N)c34)[nH]c12 [OSI-027] (partner 0.5 µM) | NCI-H1563 | 0.738 |
| COc1cc(N2CCC(C(N)=O)CC2)ccc1Nc1nc(N)c(Cl)c(Nc2ccccc2S(=O)(=O)C(C)C)n1 [HG-5-88-01] + C[C@@H](Oc1cc(-c2cnn(C3CCNCC3)c2)cnc1N)c1c(Cl)ccc(F)c1Cl [Crizotinib] (partner 1 µM) | NCI-H1563 | 0.854 |
| C[C@@H]1CN(CC(=O)Nc2ccc3c(c2)Cc2cccc(-c4cc(=O)cc(N5CCOCC5)o4)c2S3)C[C@H](C)O1 + Nc1nc2[nH]cc(CCc3ccc(C(=O)N[C@@H](CCC(=O)O)C(=O)O)cc3)c2c(=O)[nH]1 [Pemetrexed] (partner 0.2 µM) | NCI-H1563 | 0.712 |
| Clc1ccc(Nc2nnc(Cc3ccncc3)c3ccccc23)cc1 [Vatalanib] + C[C@@H](Oc1cc(-c2cnn(C3CCNCC3)c2)cnc1N)c1c(Cl)ccc(F)c1Cl [Crizotinib] (partner 1 µM) | NCI-H1563 | 0.859 |
| C[C@@H]1CN(CC(=O)Nc2ccc3c(c2)Cc2cccc(-c4cc(=O)cc(N5CCOCC5)o4)c2S3)C[C@H](C)O1 + Cc1nc(NC(=O)N2CCC[C@H]2C(N)=O)sc1-c1ccnc(C(C)(C)C(F)(F)F)c1 [Alpelisib] (partner 2 µM) | NCI-H1563 | 0.753 |
| C[C@@H]1CN(CC(=O)Nc2ccc3c(c2)Cc2cccc(-c4cc(=O)cc(N5CCOCC5)o4)c2S3)C[C@H](C)O1 + CC(C)C[C@H](NC(=O)[C@H](Cc1ccccc1)NC(=O)c1cnccn1)B(O)O [Bortezomib] (partner 0.002 µM) | NCI-H1563 | 0.797 |

====

System: HOP-62
ASSAY_NAME: relative viability (nuclei count vs DMSO), 5 days (fraction); higher = more cells survive
SETTINGS: first compound 0.03162 µM

| MOLECULE | relative viability |
| --- | --- |
| CC(C)Oc1cc(Nc2nc(N[C@@H](C)c3ccc(F)cn3)ncc2Cl)n[nH]1 [AZ23] + CC(=O)Nc1cccc(-n2c(=O)n(C3CC3)c(=O)c3c(Nc4ccc(I)cc4F)n(C)c(=O)c(C)c32)c1 [Trametinib] (partner 0.02 µM) | 0.382 |
| CC(C)Oc1cc(Nc2nc(N[C@@H](C)c3ccc(F)cn3)ncc2Cl)n[nH]1 [AZ23] + C[C@]1(O)C[C@@H](c2nc(-c3ccc4ccc(-c5ccccc5)nc4c3)c3c(N)nccn32)C1 [Linsitinib] (partner 1 µM) | 0.992 |
| CC(C)Oc1cc(Nc2nc(N[C@@H](C)c3ccc(F)cn3)ncc2Cl)n[nH]1 [AZ23] + CS(=O)(=O)CCNCc1ccc(-c2ccc3ncnc(Nc4ccc(OCc5cccc(F)c5)c(Cl)c4)c3c2)o1 [Lapatinib] (partner 2 µM) | 0.985 |
| CC(C)Oc1cc(Nc2nc(N[C@@H](C)c3ccc(F)cn3)ncc2Cl)n[nH]1 [AZ23] + CS(=O)(=O)N1CCN(Cc2cc3nc(-c4cccc5[nH]ncc45)nc(N4CCOCC4)c3s2)CC1 [Pictilisib] (partner 1 µM) | 1.11 |
| CC(C)Oc1cc(Nc2nc(N[C@@H](C)c3ccc(F)cn3)ncc2Cl)n[nH]1 [AZ23] + NC(=O)Nc1cc(-c2cccc(F)c2)sc1C(=O)N[C@H]1CCCNC1 [AZD7762] (partner 0.2 µM) | 0.804 |
| CC(C)Oc1cc(Nc2nc(N[C@@H](C)c3ccc(F)cn3)ncc2Cl)n[nH]1 [AZ23] + O=C(CCCCCCC(=O)Nc1ccccc1)NO [Vorinostat] (partner 1 µM) | 0.765 |
